# System Under Test: Human PARP-1 enzyme (Homo sapiens)
# Construct: purchased Trevigen
# Sequence (P09874 whole entry): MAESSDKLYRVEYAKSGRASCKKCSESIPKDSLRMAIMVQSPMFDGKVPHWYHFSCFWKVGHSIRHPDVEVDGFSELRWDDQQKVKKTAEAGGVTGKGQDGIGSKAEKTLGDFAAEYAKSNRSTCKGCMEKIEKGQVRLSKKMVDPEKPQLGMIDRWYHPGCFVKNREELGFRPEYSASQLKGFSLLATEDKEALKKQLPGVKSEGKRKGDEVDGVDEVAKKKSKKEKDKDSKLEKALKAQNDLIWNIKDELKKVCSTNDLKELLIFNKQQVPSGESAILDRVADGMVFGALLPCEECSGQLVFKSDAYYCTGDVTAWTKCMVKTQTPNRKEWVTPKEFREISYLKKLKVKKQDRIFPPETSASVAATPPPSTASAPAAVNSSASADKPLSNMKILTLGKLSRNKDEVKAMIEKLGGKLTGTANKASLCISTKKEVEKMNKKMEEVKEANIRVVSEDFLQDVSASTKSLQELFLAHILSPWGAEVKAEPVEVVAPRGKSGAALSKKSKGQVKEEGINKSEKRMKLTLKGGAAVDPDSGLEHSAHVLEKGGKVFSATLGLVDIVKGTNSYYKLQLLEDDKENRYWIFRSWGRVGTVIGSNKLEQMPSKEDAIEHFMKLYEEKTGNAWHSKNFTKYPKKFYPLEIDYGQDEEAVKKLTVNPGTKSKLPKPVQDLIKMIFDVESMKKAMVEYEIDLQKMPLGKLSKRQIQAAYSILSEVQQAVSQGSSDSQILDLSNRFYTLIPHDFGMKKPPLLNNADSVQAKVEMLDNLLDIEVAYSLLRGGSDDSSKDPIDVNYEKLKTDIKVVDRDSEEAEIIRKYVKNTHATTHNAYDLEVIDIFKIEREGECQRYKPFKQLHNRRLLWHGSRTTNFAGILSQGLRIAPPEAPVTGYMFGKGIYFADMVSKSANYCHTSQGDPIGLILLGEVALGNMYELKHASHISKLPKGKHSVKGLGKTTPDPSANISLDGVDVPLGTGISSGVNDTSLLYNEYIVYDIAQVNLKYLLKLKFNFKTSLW
# Test Summary: In vitro scintillation proximity assay (SPA) for PARP-1 inhibitory activity
# Format: biochemical
# Experimental Context: nicked DNA activated PARP-1, [3H]-NAD+, biotinylated histones; tested between 10^-5 M and 3x10^-9 M; read-out: in vitro SPA assay PARP-1 pIC50 (converted)

{"Compound": "Cc1cc2ccc(C(C)N3CCCC3)cc2[nH]c1=O (stereo not drawn)", "Units Of Measure": "nM", "IC50": 0.759}
{"Compound": "CCc1cc2ccc(CN3CCN(c4ncc(C(=O)O)cn4)CC3)cc2[nH]c1=O", "Units Of Measure": "nM", "IC50": 77.1}
{"Compound": "CCc1cc2ccc(CNC3CCN(c4ncccn4)CC3)cc2[nH]c1=O", "Units Of Measure": "nM", "IC50": 77.4}
{"Compound": "CCc1cc2ccc(CN3C[C@@H]4C[C@H]3CN4c3ccc(Cl)cc3)cc2[nH]c1=O", "Units Of Measure": "nM", "IC50": 34.8}
{"Compound": "Cc1cc2ccc(C(=O)N3CCN(c4ccccc4Cl)CC3)cc2[nH]c1=O", "Units Of Measure": "nM", "IC50": 116}
{"Compound": "CCc1cc2ccc(CN3CCN(c4cnccn4)CC3)cc2[nH]c1=O", "Units Of Measure": "nM", "IC50": 2.55}
{"Compound": "CCc1cc2ccc(CN3CCN(c4ncc(C(=O)NCCO)cn4)CC3)cc2[nH]c1=O", "Units Of Measure": "nM", "IC50": 8.95}
{"Compound": "CCc1cc2ccc(C(C(C)C)N3CCN(c4ccc(C#N)cn4)CC3)cc2[nH]c1=O (stereo not drawn)", "Units Of Measure": "nM", "IC50": 3.94}
{"Compound": "Cc1cc2ccc(C(C)N3CCC(c4ccc(Cl)cc4)CC3)cc2[nH]c1=O (stereo not drawn)", "Units Of Measure": "nM", "IC50": 1.5}

* * *

# melting point per record follows
Measurement Name: melting point (°C)

{"Compound": "CCc1cc2ccc(CN3CCN(c4ccccn4)CC3)cc2[nH]c1=O", "Sign Qualifier": "=", "Value Measured": 252}
{"Compound": "CCc1cc2ccc(C(O)CN3CCOCC3)cc2[nH]c1=O (stereo not drawn)", "Sign Qualifier": "=", "Value Measured": 163}
{"Compound": "CCc1cc2ccc(C(=O)N3CCc4ccccc4C3)cc2[nH]c1=O", "Sign Qualifier": "=", "Value Measured": 255}
{"Compound": "CCc1cc2ccc(CN3CCC(c4ccccc4)CC3)cc2[nH]c1=O", "Sign Qualifier": "=", "Value Measured": 184}
{"Compound": "COc1ccccc1N1CCN(Cc2ccc3cc(C)c(=O)[nH]c3c2)CC1", "Sign Qualifier": "=", "Value Measured": 198}
{"Compound": "CCc1cc2ccc(C(C(C)C)N3CCN(c4ccc(C#N)cn4)CC3)cc2[nH]c1=O (stereo not drawn)", "Sign Qualifier": "=", "Value Measured": 135}
{"Compound": "CCc1cc2ccc(CN3CCN(c4ccccc4)CC3)cc2[nH]c1=O", "Sign Qualifier": "=", "Value Measured": 242}
{"Compound": "CCc1cc2ccc(CNCCc3c[nH]c4ccccc34)cc2[nH]c1=O", "Sign Qualifier": "=", "Value Measured": 155}
{"Compound": "CCc1cc2ccc(CN3CCN(c4ncc(C(N)=O)cn4)CC3)cc2[nH]c1=O", "Sign Qualifier": ">", "Value Measured": 250}
